Tested on: Mus musculus
Procedure Text: Analgesic activity in albino mouse assessed as paw licking latency at 100 mg/kg after 0.5 hrs by Eddy's hot plate method
Format: functional
Respond with YES for Time values of 5 s and above, NO for values below.

Completed entries (count: 8):
FCCCCSc1nnc(-c2cccc(-c3ccccc3F)c2)o1    NO
N#CCCCSc1nnc(-c2cccc(-c3ccccc3F)c2)o1    NO
COc1ccccc1-c1cccc(-c2nnc(SCCCC#N)o2)c1    YES
N#CCCCSc1nnc(-c2cccc(-c3cccc(Cl)c3)c2)o1    NO
FCCCCSc1nnc(-c2cccc(-c3cccc(Cl)c3)c2)o1    YES
COc1ccc(F)cc1-c1cccc(-c2n[nH]c(=S)o2)c1    YES
S=c1[nH]nc(-c2cccc(-c3cccc(Cl)c3)c2)o1    NO
COC(=O)CCCSc1nnc(-c2cccc(-c3ccccc3F)c2)o1    NO

Prompt line: Say whether COc1ccc(F)cc1-c1cccc(-c2nnc(SCCCCF)o2)c1 shows Time of 5 s or more.
Response line: NO

Prompt line: Say whether COC(=O)CCCSc1nnc(-c2cccc(-c3cc(F)ccc3OC)c2)o1 shows Time of 5 s or more.
Response line: NO

###

Tested on: Mus musculus
Procedure Text: Analgesic activity in albino mouse assessed as paw licking latency at 100 mg/kg after 1 hr by Eddy's hot plate method
Assay type: functional
Respond with class 1 for Time values of 5 s and above, class 0 for values below.

COC(=O)CCCSc1nnc(-c2cccc(-c3ccccc3F)c2)o1    class 0
Fc1ccccc1-c1cccc(-c2n[nH]c(=S)o2)c1    class 1
FCCCCSc1nnc(-c2cccc(-c3cccc(Cl)c3)c2)o1    class 1
N#CCCCSc1nnc(-c2cccc(-c3ccccc3F)c2)o1    class 0
COc1ccccc1-c1cccc(-c2nnc(SCCCC#N)o2)c1    class 1
COC(=O)CCCSc1nnc(-c2cccc(-c3ccccc3OC)c2)o1    class 1
COc1ccccc1-c1cccc(-c2n[nH]c(=S)o2)c1    class 1
FCCCCSc1nnc(-c2cccc(-c3ccccc3F)c2)o1    class 0

Prompt line: Say whether COc1ccc(F)cc1-c1cccc(-c2n[nH]c(=S)o2)c1 shows Time of 5 s or more.
Response line: class 1

###

Tested on: Staphylococcus aureus
Procedure Text: Antibacterial activity against Staphylococcus aureus at 100 ug/ml after 24 to 48 hrs by cup-plate method
Format: functional
Test Settings: read-out: IZ
// values below are reported zone of inhibition at 100 µg/mL
Provide the measurement as a number trailed by its unit.

Some compounds with known zone of inhibition at 100 µg/mL results, for comparison:
COC(=O)CCCSc1nnc(-c2cccc(-c3ccccc3F)c2)o1    17 mm
COc1ccc(F)cc1-c1cccc(-c2n[nH]c(=S)o2)c1    17 mm
Fc1ccccc1-c1cccc(-c2n[nH]c(=S)o2)c1    20 mm
COc1ccccc1-c1cccc(-c2nnc(SCCCCF)o2)c1    21 mm
N#CCCCSc1nnc(-c2cccc(-c3ccccc3F)c2)o1    16 mm

# lookup: COC(=O)CCCSc1nnc(-c2cccc(-c3cc(F)ccc3OC)c2)o1 on Staphylococcus aureus, zone of inhibition at 100 µg/mL = 16 mm

###

System: Mus musculus
Procedure Text: Analgesic activity in albino mouse assessed as paw licking latency at 100 mg/kg after 0.5 hrs by Eddy's hot plate method
Format: functional
// values below are reported Time
Express your answer in s, writing the number without its unit.

COc1ccc(F)cc1-c1cccc(-c2nnc(SCCCC#N)o2)c1    4.92
COc1ccccc1-c1cccc(-c2nnc(SCCCCF)o2)c1    4.9
COC(=O)CCCSc1nnc(-c2cccc(-c3ccccc3OC)c2)o1    5.01
Fc1ccccc1-c1cccc(-c2n[nH]c(=S)o2)c1    4.99
COc1ccccc1-c1cccc(-c2n[nH]c(=S)o2)c1    4.94

Consider now this further compound.
Value of Time reported for the compound COC(=O)CCCSc1nnc(-c2cccc(-c3cccc(Cl)c3)c2)o1 is 4.96
